Taken from patent EP1333824B1.

biological target: human GRP receptor (BB2) (Homo sapiens); construct: expressed in transfected cells; experiment: BB2 binding assay ([125I][Tyr4]bombesin, CHO-K1 cell membranes); settings: Table 7; N-terminal sulfonamide derivatives
Sequence (P30550 whole entry): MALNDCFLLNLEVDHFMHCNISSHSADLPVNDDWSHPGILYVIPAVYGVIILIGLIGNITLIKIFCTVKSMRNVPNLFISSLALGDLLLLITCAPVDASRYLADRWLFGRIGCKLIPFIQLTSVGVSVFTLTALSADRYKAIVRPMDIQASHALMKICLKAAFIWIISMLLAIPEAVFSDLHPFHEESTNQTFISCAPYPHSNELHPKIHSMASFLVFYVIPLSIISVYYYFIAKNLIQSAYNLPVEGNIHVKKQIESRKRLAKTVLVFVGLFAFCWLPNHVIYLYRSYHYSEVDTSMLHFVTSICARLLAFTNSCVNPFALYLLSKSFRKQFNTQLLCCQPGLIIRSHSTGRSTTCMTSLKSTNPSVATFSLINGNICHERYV
pIC50: −log10 of the molar value.

compound | pIC50
C[C@@](Cc1c[nH]c2ccccc12)(NS(=O)(=O)c1ccc([N+](=O)[O-])cc1)C(=O)NCC1(c2ccccn2)CCCCC1 [Example 123] | < 5.00
Cc1nn(C)c(Cl)c1S(=O)(=O)N[C@@](C)(Cc1c[nH]c2ccccc12)C(=O)NCC1(c2ccccn2)CCCCC1 [Example 135] | < 5.00
C[C@@](Cc1c[nH]c2ccccc12)(NS(=O)(=O)c1ccc(Cl)s1)C(=O)NCC1(c2ccccn2)CCCCC1 [Example 128] | < 5.00
